# Assay notes: Plasma pharmacokinetics of mobocertinib in dose-escalation patients
# Type: in vivo, human
# Measurement context: human, plasma, oral
Assay metric: half-life

// query Query: half-life; subject: "C=CC(=O)Nc1cc(Nc2ncc(C(=O)OC(C)C)c(-c3cn(C)c4ccccc34)n2)c(OC)cc1N(C)CCN(C)C"
// result 11 to 17 h
